Origin of the recorded values: ChEMBL document CHEMBL1154034

- STUDY_TARGET: P2Y purinoceptor 12 (Homo sapiens, UniProt Q9H244)
- Sequence (Q9H244 whole entry): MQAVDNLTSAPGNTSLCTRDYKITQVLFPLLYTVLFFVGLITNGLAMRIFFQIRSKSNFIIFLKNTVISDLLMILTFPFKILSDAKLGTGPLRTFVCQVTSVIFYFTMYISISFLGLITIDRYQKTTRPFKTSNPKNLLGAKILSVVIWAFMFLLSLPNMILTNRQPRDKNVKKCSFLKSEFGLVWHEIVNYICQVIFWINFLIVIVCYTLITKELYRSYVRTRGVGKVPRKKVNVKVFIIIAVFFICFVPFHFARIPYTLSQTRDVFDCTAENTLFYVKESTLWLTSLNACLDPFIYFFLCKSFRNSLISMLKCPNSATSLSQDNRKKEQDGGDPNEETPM
- ASSAY_NOTES: Binding affinity to human recombinant P2Y12 receptor expressed in CHO cells
- Format: cell-based
pKi: −log10 of the molar value.
Note to self: values exactly at 7 are T. So pKi at or above 7 is T, below is F.

Example results:
{"COMPOUND": "CCCCCOC(=O)N1CCN(C(=O)[C@H](CCC(=O)O)NC(=O)c2cc(N3CCC(CN)CC3)cc(-c3ccccc3)n2)CC1", "LABEL_VALUE": "T"}
{"COMPOUND": "CCCCCCOC(=O)N1CCN(C(=O)[C@H](CCC(=O)O)NC(=O)c2cc(N3CCC(CN)CC3)cc(-c3ccccc3)n2)CC1", "LABEL_VALUE": "T"}
{"COMPOUND": "Cc1cccc(N2CCN(C(=O)[C@H](CCC(=O)O)NC(=O)c3cc(-c4ccccc4)cc(-c4ccccc4)n3)CC2)c1", "LABEL_VALUE": "T"}
{"COMPOUND": "CCCCCOC(=O)N1CCN(C(=O)C(CCC(=O)O)NC(=O)c2cc(N3CCC(COC)CC3)cc(-c3ccccc3)n2)CC1 (single isomer, unassigned)", "LABEL_VALUE": "F"}

// inclusive: pKi at least 7? input: CCOC(=O)N1CCN(C(=O)[C@H](CCC(=O)O)NC(=O)c2cc(N3CCC(CN)CC3)cc(-c3ccccc3)n2)CC1 T

// inclusive: pKi at least 7? input: CCOC(=O)N1CCN(C(=O)[C@H](CCC(=O)O)NC(=O)c2cc(OCCCN)cc(-c3ccccc3)n2)CC1 F

// inclusive: pKi at least 7? input: CCCCCOC(=O)N1CCN(C(=O)[C@H](CCC(=O)O)NC(=O)c2cc(OCCO)cc(-c3ccccc3)n2)CC1 T

// inclusive: pKi at least 7? input: CCOC(=O)N1CCN(C(=O)[C@H](CCC(=O)O)NC(=O)c2cc(N3CCC(COC)CC3)cc(-c3ccccc3)n2)CC1 T

###

- STUDY_TARGET: P2Y purinoceptor 12 (Homo sapiens)
- ASSAY_NOTES: Binding affinity to human recombinant P2Y12 receptor expressed in CHO cells
OBSERVABLE: pKi
Please express pKi as -log10 of the molar concentration.

Examples with their reported pKi follow.
{"COMPOUND_SMILES": "CCOC(=O)N1CCN(C(=O)[C@H](CCC(=O)O)NC(=O)c2cc(N(C)CCS(C)(=O)=O)cc(-c3ccccc3)n2)CC1", "pKi": 7.32}
{"COMPOUND_SMILES": "CCOC(=O)N1CCN(C(=O)[C@H](CCC(=O)O)NC(=O)c2cc(NCCO)cc(-c3ccccc3)n2)CC1", "pKi": 6.94}

Sure, the documented pKi for CCCCCCCCOC(=O)N1CCN(C(=O)[C@H](CCC(=O)O)NC(=O)c2cccc(-c3ccccc3)n2)CC1 is 7.85

Sure, the documented pKi for CCCCCOC(=O)N1CCN(C(=O)[C@H](CCC(=O)O)NC(=O)c2cc(OCCOC)cc(-c3ccccc3)n2)CC1 is 8.00

Sure, the documented pKi for COC(=O)N1CCN(C(=O)[C@H](CCC(=O)O)NC(=O)c2cccc(-c3ccccc3)n2)CC1 is 5.61

Sure, the documented pKi for CCCCCOC(=O)N1CCN(C(=O)[C@H](CCC(=O)O)NC(=O)c2cc(N(C)CCS(C)(=O)=O)cc(-c3ccccc3)n2)CC1 is 7.82

Sure, the documented pKi for CCOC(=O)N1CCN(C(=O)[C@H](CCC(=O)O)NC(=O)c2cc(OC)cc(-c3ccccc3)n2)CC1 is 7.02

Sure, the documented pKi for O=C(O)CC[C@H](NC(=O)c1cc(N2CCC(O)CC2)cc(-c2ccccc2)n1)C(=O)N1CCN(C(=O)OCCC2CCCC2)CC1 is 7.40

Sure, the documented pKi for CCCCCCOC(=O)N1CCN(C(=O)[C@H](CCC(=O)O)NC(=O)c2cc(N3CCC(COC)CC3)cc(-c3ccccc3)n2)CC1 is 7.48

Sure, the documented pKi for CCCCOC(=O)N1CCN(C(=O)[C@H](CCC(=O)O)NC(=O)c2cc(OC3CCNCC3)cc(-c3ccccc3)n2)CC1 is 7.92

Sure, the documented pKi for CCCCCCOC(=O)N1CCN(C(=O)[C@H](CCC(=O)O)NC(=O)c2cc(N(C)CCS(C)(=O)=O)cc(-c3ccccc3)n2)CC1 is 7.44

Sure, the documented pKi for CCOC(=O)N1CCN(C(=O)[C@H](CCC(=O)O)NC(=O)c2cc(OCC3CCNCC3)cc(-c3ccccc3)n2)CC1 is 7.12

Sure, the documented pKi for CN(CCS(C)(=O)=O)c1cc(C(=O)N[C@@H](CCC(=O)O)C(=O)N2CCN(C(=O)OCCC3CCCC3)CC2)nc(-c2ccccc2)c1 is 7.10

Sure, the documented pKi for CCCNc1cc(C(=O)N[C@@H](CCC(=O)O)C(=O)N2CCN(C(=O)OCC)CC2)nc(-c2ccccc2)c1 is 7.19

Sure, the documented pKi for C=CCOC(=O)N1CCN(C(=O)[C@H](CCC(=O)O)NC(=O)c2cc(OCCO)cc(-c3ccccc3)n2)CC1 is 6.69

Sure, the documented pKi for CCCCCOC(=O)N1CCN(C(=O)[C@H](CCC(=O)O)NC(=O)c2cc(N3CCC(COC)CC3)cc(-c3ccccc3)n2)CC1 is 7.82
